- subject_of_test: E3 ubiquitin-protein ligase Mdm2 (Homo sapiens)
- procedure_details: Inhibition of HDM2 expressed in Escherichia coli BL21 (DE3) assessed as inhibition of HDM2 binding to p53 protein by fluorescence anisotropy competition method
- reported_conditions: read-out: IC50
pIC50: −log10 of the molar value.
assay_readout: pIC50

See these solved cases before continuing.
| molecule | assay_readout | test_value |
| --- | --- | --- |
| CC(C)CCCCNC(=O)N(CC(CCC(=O)O)NC(N)=O)C(CCCCN)CN(C(=O)NCCc1ccc(Br)cc1)C(CCC(=O)O)CN(CCC(N)=O)C(=O)NCCCc1ccc(Br)cc1 (stereo unspecified) | pIC50 | 4.89 |
| CC(C)CCCNC(=O)N(CC(CCC(=O)O)NC(N)=O)C(CCCCN)CN(C(=O)NCCc1ccc(Br)cc1)C(CCC(=O)O)CN(CCC(N)=O)C(=O)NCCCc1ccccc1 (stereo unspecified) | pIC50 | 4.74 |
| NCCCCC(CN(C(=O)NCCc1ccc(Br)cc1)C(CCC(=O)O)CN(CCC(N)=O)C(=O)NCCCc1ccc(Br)cc1)N(CC(CCC(=O)O)NC(=O)[C@@H]1CCCN1)C(=O)NCCCC1CCCCC1 (stereo partly specified) | pIC50 | 5.09 |

1: CC(C)CCCNC(=O)N(CC(CCC(=O)O)NC(N)=O)C(CCCCN)CN(C(=O)NCCc1ccc(Br)cc1)C(CCC(=O)O)CN(CCC(N)=O)C(=O)NCCCc1ccc(Br)cc1 (stereo unspecified)
2: Cc1ccc(CCCNC(=O)N(CCC(N)=O)CC(CCC(=O)O)N(CC(CCCCN)N(CC(CCC(=O)O)NC(N)=O)C(=O)NCCCC(C)C)C(=O)NCCc2ccc(Br)cc2)cc1 (stereo unspecified)
3: CC(C)CCCNC(=O)N(CC(CCC(=O)O)NC(N)=O)C(CCCCN)CN(C(=O)NCCc1ccc(Cl)cc1)C(CCC(=O)O)CN(CCC(N)=O)C(=O)NCCc1ccc(Cl)cc1 (stereo unspecified)
q: Your job: order these 3 records by pIC50, ascending. // ordering of labels required in reply
a: 3, 2, 1
(3: 4.20, 2: 4.62, 1: 5.04)

----------
- subject_of_test: Protein Mdm4 (Homo sapiens)
- Sequence (O15151 whole entry): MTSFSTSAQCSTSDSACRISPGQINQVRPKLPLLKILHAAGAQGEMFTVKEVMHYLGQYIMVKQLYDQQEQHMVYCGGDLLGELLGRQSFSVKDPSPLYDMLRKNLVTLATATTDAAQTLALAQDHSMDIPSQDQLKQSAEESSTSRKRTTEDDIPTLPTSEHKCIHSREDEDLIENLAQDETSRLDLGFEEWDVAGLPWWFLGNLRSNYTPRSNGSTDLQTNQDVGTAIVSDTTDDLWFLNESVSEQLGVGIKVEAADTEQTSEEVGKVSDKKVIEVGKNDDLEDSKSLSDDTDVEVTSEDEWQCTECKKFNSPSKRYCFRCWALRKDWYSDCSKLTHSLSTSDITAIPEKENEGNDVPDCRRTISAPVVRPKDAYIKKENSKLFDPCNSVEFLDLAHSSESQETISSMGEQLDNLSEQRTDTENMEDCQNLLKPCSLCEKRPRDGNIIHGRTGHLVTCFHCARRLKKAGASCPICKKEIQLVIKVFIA
- procedure_details: Inhibition of GST-tagged HDMX expressed in Escherichia coli BL21 (DE3) assessed as inhibition of HDMX binding to p53 protein by fluorescence anisotropy competition method
- reported_conditions: read-out: IC50
pIC50: −log10 of the molar value.
assay_readout: pIC50

# annotated cases, reported pIC50 shown
| molecule | pIC50 |
| --- | --- |
| CC(C)CCCNC(=O)N(CC(CCC(=O)O)NC(N)=O)C(CCCCN)CN(C(=O)NCCc1ccc(Br)cc1)C(CCC(=O)O)CN(CCC(N)=O)C(=O)NCCCc1ccc(Br)cc1 (stereo unspecified) | 4.62 |
| NCCCCC(CN(C(=O)NCCc1ccc(Br)cc1)C(CCC(=O)O)CN(CCC(N)=O)C(=O)NCCCc1ccc(Br)cc1)N(CC(CCC(=O)O)NC(N)=O)C(=O)NCCCc1ccc([N+](=O)[O-])cc1 (stereo unspecified) | 5.09 |
| CC(C)CCCNC(=O)N(CC(CCC(=O)O)NC(N)=O)C(CCCCN)CN(C(=O)NCCc1ccc(Br)cc1)C(CCC(=O)O)CN(CCC(N)=O)C(=O)NCCc1ccc(Br)cc1 (stereo unspecified) | 4.39 |
| CC(C)CCC(=O)N[C@@H](CCCC(=O)O)CN(C(=O)NCCCC1CCCCC1)[C@@H](CCCCN)CN(C(=O)NCCc1ccc(Br)cc1)[C@@H](CCCC(=O)O)CN(CCC(N)=O)C(=O)NCCCc1ccc(F)cc1 | 4.39 |
| CC(C)CCC(=O)NC(CCC(=O)O)CN(C(=O)NCCCC1CCCCC1)C(CCCCN)CN(C(=O)NCCc1ccc(Br)cc1)C(CCC(=O)O)CN(CCC(N)=O)C(=O)NCCCc1ccc(Br)cc1 (stereo unspecified) | 5.39 |
| NCCCCC(CN(C(=O)NCCc1ccc(Br)cc1)C(CCC(=O)O)CN(CCC(N)=O)C(=O)NCCCc1ccc(Br)cc1)N(CC(CCC(=O)O)NC(N)=O)C(=O)NCCCC1CCCCC1 (stereo unspecified) | 5.19 |
| Cc1ccc(CCNC(=O)N(CC(CCCCN)N(CC(CCC(=O)O)NC(=O)CCC(C)C)C(=O)NCCCC2CCCCC2)C(CCC(=O)O)CN(CCC(N)=O)C(=O)NCCCCc2ccc(F)cc2)cc1 (stereo unspecified) | 4.85 |
| C=CCNC(=O)NC(CCC(=O)O)CN(C(=O)NCCCC1CCCCC1)C(CCCCN)CN(C(=O)NCCc1ccc(Br)cc1)C(CCC(=O)O)CN(CCC(N)=O)C(=O)NCCCc1ccc(Br)cc1 (stereo unspecified) | 5.00 |

P: NCCCCC(CN(C(=O)NCCc1ccc(Br)cc1)C(CCC(=O)O)CN(CCC(N)=O)C(=O)NCCCc1ccc(Br)cc1)N(CC(CCC(=O)O)NC(=O)CCC1CCCCC1)C(=O)NCCCC1CCCCC1 (stereo unspecified)
Q: CC(C)CCCCNC(=O)N(CC(CCC(=O)O)NC(N)=O)C(CCCCN)CN(C(=O)NCCc1ccc(Br)cc1)C(CCC(=O)O)CN(CCC(N)=O)C(=O)NCCCc1ccc(Br)cc1 (stereo unspecified)
q: Hi there, can you help? I need to know whether P or Q has lower measured pIC50. Respond using the label that marks the chosen record.
a: Q
(Q: 4.89, P: 5.12)

----------
- subject_of_test: E3 ubiquitin-protein ligase Mdm2 (Homo sapiens)
- procedure_details: Inhibition of HDM2 expressed in Escherichia coli BL21 (DE3) assessed as inhibition of HDM2 binding to p53 protein by fluorescence anisotropy competition method
- reported_conditions: read-out: IC50
assay_readout: IC50 (µM)

| compound | subject_of_test | IC50 / µM |
| --- | --- | --- |
| NCCCCC(CN(C(=O)NCCc1ccc(Br)cc1)C(CCC(=O)O)CN(CCC(N)=O)C(=O)NCCCc1ccc(Br)cc1)N(CC(CCC(=O)O)NC(N)=O)C(=O)NCCCc1ccccc1 (stereo not drawn) | E3 ubiquitin-protein ligase Mdm2 (Homo sapiens) | 13 |

A: NCCCCC(CN(C(=O)NCCc1ccc(Br)cc1)C(CCC(=O)O)CN(CCC(N)=O)C(=O)NCCCc1ccc(Br)cc1)N(CC(CCC(=O)O)NC(=O)CCC1CCCCC1)C(=O)NCCCC1CCCCC1 (stereo not drawn)
B: CC(C)CCCNC(=O)N(CC(CCC(=O)O)NC(N)=O)C(CCCCN)CN(C(=O)NCCCc1ccccc1)C(CCC(=O)O)CN(CCC(N)=O)C(=O)NCCc1ccc(Br)cc1 (stereo not drawn)
q: I would appreciate it if you could say which entry, A or B , has the lower IC50 value. Select an item and report its label.
a: A
(A: 2.8 µM, B: 38 µM)

----------
- subject_of_test: E3 ubiquitin-protein ligase Mdm2 (Homo sapiens, UniProt Q00987)
- Sequence (Q00987 whole entry): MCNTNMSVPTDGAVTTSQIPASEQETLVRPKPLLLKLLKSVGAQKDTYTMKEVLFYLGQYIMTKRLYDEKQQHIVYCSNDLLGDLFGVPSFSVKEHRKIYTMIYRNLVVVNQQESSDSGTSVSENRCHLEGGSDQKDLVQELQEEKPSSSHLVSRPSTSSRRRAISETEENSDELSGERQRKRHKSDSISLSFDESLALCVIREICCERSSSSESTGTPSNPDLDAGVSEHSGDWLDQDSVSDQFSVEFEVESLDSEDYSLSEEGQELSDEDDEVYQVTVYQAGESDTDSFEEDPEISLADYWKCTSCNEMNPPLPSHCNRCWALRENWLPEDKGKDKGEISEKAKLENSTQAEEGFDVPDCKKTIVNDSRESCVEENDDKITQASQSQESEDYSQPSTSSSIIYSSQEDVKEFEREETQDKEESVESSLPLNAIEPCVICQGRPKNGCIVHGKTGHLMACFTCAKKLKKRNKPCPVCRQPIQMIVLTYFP
- procedure_details: Inhibition of HDM2 expressed in Escherichia coli BL21 (DE3) assessed as inhibition of HDM2 binding to p53 protein by fluorescence anisotropy competition method
- reported_conditions: read-out: IC50
pIC50: −log10 of the molar value.
assay_readout: pIC50

| compound | test_value |
| --- | --- |
| C=CCNC(=O)NC(CCC(=O)O)CN(C(=O)NCCCC1CCCCC1)C(CCCCN)CN(C(=O)NCCc1ccc(Br)cc1)C(CCC(=O)O)CN(CCC(N)=O)C(=O)NCCCc1ccc(Br)cc1 (configuration not stated) | 4.77 |

a: CC(C)CCCNC(=O)N(CC(CCC(=O)O)NC(N)=O)C(CCCCN)CN(C(=O)NCCCc1ccc(Br)cc1)C(CCC(=O)O)CN(CCC(N)=O)C(=O)NCCCc1ccccc1 (configuration not stated)
b: Cc1ccc(CCNC(=O)N(CC(CCCCN)N(CC(CCC(=O)O)NC(=O)CCC(C)C)C(=O)NCCCC2CCCCC2)C(CCC(=O)O)CN(CCC(N)=O)C(=O)NCCCc2ccc(Br)cc2)cc1 (configuration not stated)
q: Between the two listed entries a and b , which has its pIC50 at the higher number? Identify your selection by its label.
a: b
(b: 5.64, a: 4.70)

----------
- subject_of_test: UniProt Q00987
- procedure_details: Inhibition of HDM2 expressed in Escherichia coli BL21 (DE3) assessed as inhibition of HDM2 binding to p53 protein by fluorescence anisotropy competition method
- reported_conditions: read-out: IC50
pIC50: −log10 of the molar value.
assay_readout: pIC50

| molecule | subject_of_test | pIC50 |
| --- | --- | --- |
| NCCCCC(CN(C(=O)NCCc1ccc(Br)cc1)C(CCC(=O)O)CN(CCC(N)=O)C(=O)NCCCc1ccc(Br)cc1)N(CC(CCC(=O)O)NC(N)=O)C(=O)NCCCC1CCCCC1 (centres undefined) | UniProt Q00987 | 5.19 |
| NCCCCC(CN(C(=O)NCCc1ccc(Br)cc1)C(CCC(=O)O)CN(CCC(N)=O)C(=O)NCCCc1ccc(Br)cc1)N(CC(CCC(=O)O)NC(N)=O)C(=O)NCCCc1ccc([N+](=O)[O-])cc1 (centres undefined) | UniProt Q00987 | 5.00 |
